# Tested on: Staphylococcus aureus
# assay-notes: Antibacterial activity against Staphylococcus aureus isolate 42 […] by CLSI method
# Assay type: functional
Documented MIC across a set of molecules
Write it as a number; the unit µg/mL goes unstated.

| structure-smiles-string | target | reported-result |
| --- | --- | --- |
| CCCCCCCCCC(=O)N[C@@H](Cc1c[nH]c2ccccc12)C(=O)N[C@@H](CC(N)=O)C(=O)N[C@@H](CC(=O)O)C(=O)N[C@@H]1C(=O)NCC(=O)N[C@@H](CCCN)C(=O)N[C@@H](CC(=O)O)C(=O)N[C@H](C)C(=O)N[C@@H](CC(=O)O)C(=O)NCC(=O)N[C@H](CO)C(=O)N[C@@H]([C@H](C)CC(N)=O)C(=O)N[C@@H](CC(=O)c2ccccc2N)C(=O)O[C@@H]1C | Staphylococcus aureus | 32 |
| CCCCCCCCCC(=O)N[C@@H](Cc1c[nH]c2ccccc12)C(=O)N[C@@H](CC(N)=O)C(=O)N[C@@H](CC(=O)O)C(=O)N[C@@H]1C(=O)NCC(=O)N[C@@H](CCCN)C(=O)N[C@@H](CC(=O)O)C(=O)N[C@H](C)C(=O)N[C@@H](CC(=O)O)C(=O)NCC(=O)N[C@H](CO)C(=O)N[C@@H](C(C)(C)CC(=O)O)C(=O)N[C@@H](CC(=O)c2ccccc2N)C(=O)O[C@@H]1C | Staphylococcus aureus | 64 |
| CCCCCCCCCC(=O)N[C@@H](Cc1c[nH]c2ccccc12)C(=O)N[C@@H](CC(N)=O)C(=O)N[C@@H](CC(=O)O)C(=O)N[C@@H]1C(=O)NCC(=O)N[C@@H](CCCN)C(=O)N[C@@H](CC(=O)O)C(=O)N[C@H](C)C(=O)N[C@@H](CC(=O)O)C(=O)NCC(=O)N[C@H](CO)C(=O)N[C@@H]([C@H](CC)CC(=O)O)C(=O)N[C@@H](CC(=O)c2ccccc2N)C(=O)O[C@@H]1C | Staphylococcus aureus | 8 |

Task: Using the record for `CCCCCCCCCC(=O)N[C@@H](Cc1c[nH]c2ccccc12)C(=O)N[C@H](CC(N)=O)C(=O)N[C@@H](CC(=O)O)C(=O)N[C@@H]1C(=O)NCC(=O)N[C@@H](CCCN)C(=O)N[C@@H](CC(=O)O)C(=O)N[C@H](C)C(=O)N[C@@H](CC(=O)O)C(=O)NCC(=O)N[C@H](CO)C(=O)N[C@@H]([C@H](C)CC(=O)O)C(=O)N[C@@H](CC(=O)c2ccccc2N)C(=O)O[C@@H]1C` , state its measured MIC.
Result: 0.5

---

# Test system: Staphylococcus aureus
# assay-notes: Antibacterial activity against Staphylococcus aureus isolate 42 […] by CLSI method
# Format: functional
property-label: MIC (µg/mL)
Write it as a number; the unit µg/mL goes unstated.

Task: Using the record for CCCCCCCCCC(=O)N[C@@H](Cc1c[nH]c2ccccc12)C(=O)N[C@@H](CC(N)=O)C(=O)N[C@@H](CC(=O)O)C(=O)N[C@@H]1C(=O)NCC(=O)N[C@@H](CCCN)C(=O)N[C@@H](CC(=O)O)C(=O)N[C@H](C)C(=O)N[C@@H](CC(=O)O)C(=O)NCC(=O)N[C@H](CO)C(=O)N[C@@H](C(C)CC(=O)O)C(=O)N[C@@H](CC(=O)c2ccccc2N)C(=O)O[C@@H]1C (single isomer, unassigned) [DAPTOMYCIN] , state its measured MIC.
Result: 128
